target: SARS-CoV 3CL^Pro (Severe acute respiratory syndrome coronavirus); assay: biochemical; format: biochemical
Measured metric: Inhibition of 3CL^Pro activity (in words)

Compound	Result
Oc1cc(O)c2c(c1)O[C@H](c1cc(O)c(O)c(O)c1)[C@H](O)C2 [EGC, epigallocatechin]	did not inhibit
Oc1cc(O)c2c(c1)O[C@H](c1ccc(O)c(O)c1)[C@H](O)C2 [EC, epicatechin]	did not inhibit
O=C(O[C@@H]1Cc2c(O)cc(O)cc2O[C@@H]1c1ccc(O)c(O)c1)c1cc(O)c(O)c(O)c1 [ECg, epicatechin gallate]	did not inhibit

Data origin, for the record: paper PMC1142193
